experiment: Particle size and polydispersity index of nanoparticle compositions (Zetasizer Nano ZS); format: physicochemical; conditions: Table 1E; compositions for subcutaneous administration
assay.metric: Size

Consider the worked cases shown below.
molecule: CCCCCC=CCC=CCCCCCCCCC(CCCCCCCCC=CCC=CCCCCC)OC(=O)CCCN(C)C (centres unmarked) [MC3, reference compound]
measured.value: 62.4 nm

molecule: CCCC/C=C\CCC(CC/C=C\CCCC)OC(=O)CCCCCCCN(CCO)CCCCCC(=O)OCCCCCCCCCCC [Compound 61]
measured.value: 80.0 nm

molecule: CCCCCCCCCOC(=O)CCCCCCCN(CCCCCCCC(=O)OC(CCCCCCCC)CCCCCCCC)CCCNC(C)=O [Compound 108]
measured.value: 96.1 nm

molecule: CCCCCCCCCOC(=O)CCCCCCCN(CCCCCCCC(=O)OC(CCCCCCCC)CCCCCCCC)CCCNS(C)(=O)=O [Compound 109]
measured.value: 67.0 nm

molecule: CCCCCCCCCOC(=O)CCCCCCCN(CCO)CCCCCCCCCC(=O)OC(CCCCCCCC)CCCCCCCC [Compound 23]
measured.value: 70.5 nm

State its Size for this molecule: CCCCCCCCCOC(=O)CCCCCCCN(CCCCCCCC(=O)OC(CCCCCCCC)CCCCCCCC)CCCN/C(=N/C#N)N(C)C [Compound 168] 85.0 nm

For CCCCCCCCC(CCCCCCCC)OC(=O)CCCCCCCN(CCO)CCCCCC(=O)OC(CCCCCCCC)C1CC1 (centres unmarked) [Compound 128] , write its Size. 73.9 nm

State its Size for this molecule: CCCC/C=C\CCC(CC/C=C\CCCC)OC(=O)CCCCCCCN(CCO)CCCCCCCC(=O)OCCCCCCCCC [Compound 60] 93.3 nm

Specify reported Size for the molecule shown: CCCCCCCCCOC(=O)CCCCCCCN(CCCO)CCCCCCCC(=O)OC(CCCCCCCC)CCCCCCCC [Compound 19] 80.7 nm

Tell me its Size given CCCCCCCCCOC(=O)CCCCCCCN(CCCCCCCC(=O)OC(CCCCCCCC)CCCCCCCC)CC(O)CO (centres unmarked) [Compound 69] as the entry. 71.8 nm

Provide measured Size value, entry: CCCCCCCCCOC(=O)CCCCCCCN(CCCCCCCC(=O)OC(CCCCCCCC)CCCCCCCC)CCCNC(=S)N(C)C [Compound 111] 88.9 nm

* * *

assay: Encapsulation efficiency of RNA in nanoparticle compositions (RIBOGREEN assay); type: physicochemical; settings: Table 1A; lipid:DSPC:cholesterol:PEG-DMG 50:10:38.5:1.5 mol %
Please use true for EE under 90% and false for everything else, ties included.

Reference set, count: 3
smiles.str: CCCCCCCCCOC(=O)CCCCCCCN(CCCCCCCC(=O)OC(CCCCCCCC)CCCCCCCC)CCOC(C)=O
class.assignment: true
--
smiles.str: CCCCCCCCCCCCCCN(CCO)CCCCCCCC(=O)OC(CCCCCCCC)CCCCCCCC
class.assignment: false
--
smiles.str: CCCCCCCCCCCOC(=O)CCCCCN(CCO)CCCCCCCC(=O)OC(CCCCCCCC)CCCCCCCC
class.assignment: false

EE under 90%? Item: CCCCCCCCCOC(=O)CCCCCCCN(CCO)CCCCCCCOP(=O)(OCCCCCCCC)OCCCCCCCC true

Given CCCCCCCCCOC(=O)CCCCCCCN(CCO)CCCCCCC(=O)OCC(CCCCCCCC)CCCCCCCC , is recorded EE strictly lower than 90%? false
